viability, T/C values by entry
- Tested on: 439559-082-T-J2-PDC spheroids viability
- test.protocol: Anticancer human tumor 439559-082-T-J2-PDC patient-derived colon adenocarcinoma cell line growth inhibition [GQUAD]
- protocol.conditions: second compound 1 µM; first compound 10 µM; active compounds read low

compound	target	viability, T/C [%]
COc1cccc2c1C(=O)c1c(O)c3c(c(O)c1C2=O)CC(O)(C(=O)CO)CC3OC1CC(N)C(O)C(C)O1 (stereo not drawn) + CN(C)c1ccc(Nc2c3ccc(NC(=O)CCN4CCCC4)cc3nc3cc(NC(=O)CCN4CCCC4)ccc23)cc1	439559-082-T-J2-PDC spheroids viability	42
CC1COCCN1c1cc(C2(S(C)(=N)=O)CC2)nc(-c2ccnc3[nH]ccc23)n1 (stereo not drawn) + Cc1cnc(CNC(=O)c2c(=O)c3ccc(N4CCCN(C)CC4)nc3n3c2sc2ccccc23)cn1	439559-082-T-J2-PDC spheroids viability	65.6
O=C(NO)c1cnc(N2CCN(S(=O)(=O)c3ccc4ccccc4c3)CC2)nc1 + CN(C)c1ccc(Nc2c3ccc(NC(=O)CCN4CCCC4)cc3nc3cc(NC(=O)CCN4CCCC4)ccc23)cc1	439559-082-T-J2-PDC spheroids viability	0.19

* * *

- Tested on: 439559-082-T-J2-PDC spheroids viability
- test.protocol: Anticancer human tumor 439559-082-T-J2-PDC cell line growth inhibition [GQUAD];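 also: spheroids exposed to the agents for 7 days before readout; percent of luminescence signal in DMSO vehicle wells taken as 100% viability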
- protocol.conditions: second compound 1 µM; first compound 10 µM; active compounds read low
viability, T/C strictly under 30% means yes (1); at 30% or over means no (0).

compound	target	class.name
C=CCn1c(=O)c2cnc(Nc3ccc(N4CCN(C)CC4)cc3)nc2n1-c1cccc(C(C)(C)O)n1 + CN(C)c1ccc(Nc2c3ccc(NC(=O)CCN4CCCC4)cc3nc3cc(NC(=O)CCN4CCCC4)ccc23)cc1	439559-082-T-J2-PDC spheroids viability	yes (1)
C=CC(=O)N1CCN(c2nc(=O)n(-c3c(C)ccnc3C(C)C)c3nc(-c4c(O)cccc4F)c(F)cc23)C(C)C1 (configuration not stated) + CN(C)c1ccc(Nc2c3ccc(NC(=O)CCN4CCCC4)cc3nc3cc(NC(=O)CCN4CCCC4)ccc23)cc1	439559-082-T-J2-PDC spheroids viability	no (0)
O=C(NO)c1cnc(N2CCN(S(=O)(=O)c3ccc4ccccc4c3)CC2)nc1 + Cc1[nH]c2ccc(F)cc2c1-c1nc2c3cccnc3c3ncccc3c2[nH]1	439559-082-T-J2-PDC spheroids viability	yes (1)
Nc1ccn(C2OC(CO)C(O)C2(F)F)c(=O)n1 (configuration not stated) + CN(C)c1ccc(Nc2c3ccc(NC(=O)CCN4CCCC4)cc3nc3cc(NC(=O)CCN4CCCC4)ccc23)cc1	439559-082-T-J2-PDC spheroids viability	yes (1)
CCCS(=O)(=O)Nc1ccc(F)c(C(=O)c2c[nH]c3ncc(-c4ccc(Cl)cc4)cc23)c1F + Cc1cnc(CNC(=O)c2c(=O)c3ccc(N4CCCN(C)CC4)nc3n3c2sc2ccccc23)cn1	439559-082-T-J2-PDC spheroids viability	no (0)
C=CCn1c(=O)c2cnc(Nc3ccc(N4CCN(C)CC4)cc3)nc2n1-c1cccc(C(C)(C)O)n1 + Cc1cnc(CNC(=O)c2c(=O)c3ccc(N4CCCN(C)CC4)nc3n3c2sc2ccccc23)cn1	439559-082-T-J2-PDC spheroids viability	yes (1)
CCCS(=O)(=O)Nc1ccc(F)c(C(=O)c2c[nH]c3ncc(-c4ccc(Cl)cc4)cc23)c1F + CN(C)c1ccc(Nc2c3ccc(NC(=O)CCN4CCCC4)cc3nc3cc(NC(=O)CCN4CCCC4)ccc23)cc1	439559-082-T-J2-PDC spheroids viability	no (0)
O=C(NO)c1cnc(N2CCN(S(=O)(=O)c3ccc4ccccc4c3)CC2)nc1 + Cc1cnc(CNC(=O)c2c(=O)c3ccc(N4CCCN(C)CC4)nc3n3c2sc2ccccc23)cn1	439559-082-T-J2-PDC spheroids viability	yes (1)
CC1COCCN1c1cc(-c2ccnn2C)c2ccnc(-c3ccn[nH]3)c2n1 (configuration not stated) + CN(C)c1ccc(Nc2c3ccc(NC(=O)CCN4CCCC4)cc3nc3cc(NC(=O)CCN4CCCC4)ccc23)cc1	439559-082-T-J2-PDC spheroids viability	yes (1)
CC(=O)O[C@H]1C(=O)[C@@]2(C)[C@H]([C@H](OC(=O)c3ccccc3)[C@]3(O)C[C@H](OC(=O)[C@H](O)[C@@H](NC(=O)c4ccccc4)c4ccccc4)C(C)=C1C3(C)C)[C@]1(OC(C)=O)CO[C@@H]1C[C@@H]2O + CN(C)c1ccc(Nc2c3ccc(NC(=O)CCN4CCCC4)cc3nc3cc(NC(=O)CCN4CCCC4)ccc23)cc1	439559-082-T-J2-PDC spheroids viability	yes (1)
COc1ccc([C@@H](O)c2cc(-c3ncnc4cc(N5CCOCC5)ccc34)c(F)cc2Cl)nn1 + Cc1cnc(CNC(=O)c2c(=O)c3ccc(N4CCCN(C)CC4)nc3n3c2sc2ccccc23)cn1	439559-082-T-J2-PDC spheroids viability	no (0)
CC(C)(O)C1CCC(Nc2ccc3ncc(-c4cccc(C(F)(F)F)c4)n3n2)CC1 (configuration not stated) + CN(C)c1ccc(Nc2c3ccc(NC(=O)CCN4CCCC4)cc3nc3cc(NC(=O)CCN4CCCC4)ccc23)cc1	439559-082-T-J2-PDC spheroids viability	yes (1)
O=c1[nH]cc(F)c(=O)[nH]1 + Cc1[nH]c2ccc(F)cc2c1-c1nc2c3cccnc3c3ncccc3c2[nH]1	439559-082-T-J2-PDC spheroids viability	no (0)
Cc1cccc(N(C)C(=O)C2C(O)CCN2c2nc(C)cc(C(F)(F)F)c2C#N)c1 (configuration not stated) + Cc1[nH]c2ccc(F)cc2c1-c1nc2c3cccnc3c3ncccc3c2[nH]1	439559-082-T-J2-PDC spheroids viability	no (0)
O=C(c1cc(Cc2n[nH]c(=O)c3ccccc23)ccc1F)N1CCN(C(=O)C2CC2)CC1 + Cc1[nH]c2ccc(F)cc2c1-c1nc2c3cccnc3c3ncccc3c2[nH]1	439559-082-T-J2-PDC spheroids viability	no (0)
COc1ncnc(C2CC2)c1-c1ncc2cnn(Cc3ccc(-c4nc(C(F)(F)F)cn4C(C)C)cc3)c2n1 + Cc1[nH]c2ccc(F)cc2c1-c1nc2c3cccnc3c3ncccc3c2[nH]1	439559-082-T-J2-PDC spheroids viability	no (0)

Cited source: PubChem BioAssay AID2060510
